Molecular target: T1, HLA-A*01:01 (human)
T1 construct: MHC class I monomer first loaded with a UV-sensitive peptide (not identified) that is cleaved by UV irradiation and exchanged for the tested peptide; captured on streptavidin plates, detected with anti-β2m; also called peptide-receptive MHC molecules
Experiment: UV-ligand exchange, anti-b2m ELISA
Text: Candidate peptides for T cell based therapies according to the present invention were further tested for their MHC binding capacity (affinity). The individual peptide-MHC complexes were produced by UV-ligand exchange, where a UV-sensitive peptide is cleaved upon UV-irradiation and exchanged with the peptide of interest as analyzed. Only peptide candidates that can effectively bind and stabilize the peptide-receptive MHC molecules prevent dissociation of the MHC complexes. […]
Entries and their peptide exchange yield values follow.
assayReadout: peptide exchange yield

>>> recordedmeasurement("HTDLESPSAVY")
"50 to 75%"
>>> recordedmeasurement("YTADNEMGYY")
"50 to 75%"
>>> recordedmeasurement("DVERIKDTY")
"20 to 50%"
>>> recordedmeasurement("FTDYELKAY")
"> 75%"
>>> recordedmeasurement("AQVQDTGRY")
"50 to 75%"
>>> recordedmeasurement("KASSVSAEDGY")
"20 to 50%"
>>> recordedmeasurement("FTTQDELLVY")
"50 to 75%"
>>> recordedmeasurement("ITVDVRDEF")
"10 to 20%"
>>> recordedmeasurement("VSINPNSGDIY")
"50 to 75%"
>>> recordedmeasurement("GSPDAVVSY")
"10 to 20%"
>>> recordedmeasurement("LQKPVLPLY")
"20 to 50%"
>>> recordedmeasurement("KTELETALYY")
"50 to 75%"
>>> recordedmeasurement("VTTDKPRAY")
"20 to 50%"
>>> recordedmeasurement("ISEAPLTEV")
"20 to 50%"
>>> recordedmeasurement("SVTDLIGGKW")
"20 to 50%"
>>> recordedmeasurement("MTEKFLFLY")
"> 75%"
